Value source: patent US12590062B2

Target: PD-1/PD-L1 interaction (Homo sapiens, UniProt Q9NZQ7)
Construct: expressed in transfected cells; host or cells: CHO cells (aAPC-PD-L1) co-cultured with Jurkat cells overexpressing PD-1 and an NFAT-luciferase reporter
Sequence (Q9NZQ7 19-290): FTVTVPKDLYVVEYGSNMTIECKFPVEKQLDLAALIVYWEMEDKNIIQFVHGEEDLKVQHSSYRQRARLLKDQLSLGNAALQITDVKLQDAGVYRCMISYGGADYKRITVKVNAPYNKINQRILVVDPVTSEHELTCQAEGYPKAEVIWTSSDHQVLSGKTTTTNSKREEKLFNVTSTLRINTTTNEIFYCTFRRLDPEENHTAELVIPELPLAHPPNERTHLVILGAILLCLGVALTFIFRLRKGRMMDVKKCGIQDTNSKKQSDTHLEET
Assay: PD-1/PD-L1 NFAT reporter co-culture assay
Format: cell-based
Conditions: Jurkat PD-1 NFAT-luciferase cells co-cultured with aAPC-PD-L1 CHO cells, 6 hrs at 37° C.; read-out: EC50 NFAT Luciferase
pEC50: −log10 of the molar value.
If the reported pEC50 equals or exceeds 6, assign rule met. If not, assign rule not met.

>  <SMILES_RECORD>
Cc1c(COc2nc(OCc3cncnc3)c(CNC[C@@H](O)CC(=O)O)cc2Br)cccc1-c1cccc(COc2nc(OCc3cncnc3)c(CNC[C@@H](O)CC(=O)O)cc2Br)c1C

>  <TARGET_OF_ASSAY>
PD-1/PD-L1 interaction (Homo sapiens, UniProt Q9NZQ7)

>  <CLASS_ASSIGNMENT>
rule met

$$$$
>  <SMILES_RECORD>
Cc1c(COc2cc(OCc3cncc(C#N)c3)c(CNC[C@@H](O)CC(=O)O)cc2Cl)cccc1-c1cccc(-c2ccc(CNC[C@@H](O)CC(=O)O)c(OCC#N)c2)c1C

>  <TARGET_OF_ASSAY>
PD-1/PD-L1 interaction (Homo sapiens, UniProt Q9NZQ7)

>  <CLASS_ASSIGNMENT>
rule met

$$$$
>  <SMILES_RECORD>
COc1nc(O[C@H]2CCc3c(-c4cccc(-c5ccc(CNC[C@@H]6CCC(=O)N6)cc5)c4Cl)cccc32)c(Cl)cc1CN1CCC[C@H]1C(=O)O

>  <TARGET_OF_ASSAY>
PD-1/PD-L1 interaction (Homo sapiens, UniProt Q9NZQ7)

>  <CLASS_ASSIGNMENT>
rule met

$$$$
>  <SMILES_RECORD>
COc1nc(-c2cccc(-c3cccc4c3CC[C@@H]4Oc3nc(OC)c(CN4CC[C@H](C(=O)O)C4)cc3Cl)c2Cl)ccc1CN1CC(O)C1

>  <TARGET_OF_ASSAY>
PD-1/PD-L1 interaction (Homo sapiens, UniProt Q9NZQ7)

>  <CLASS_ASSIGNMENT>
rule met

$$$$
>  <SMILES_RECORD>
CC(C)(NCc1cc(Cl)c(O[C@H]2CCc3c(-c4cccc(-c5ccc(OCCN6CC[C@@H](O)C6)cc5)c4Cl)cccc32)nc1OCc1cncc(C#N)c1)C(=O)O

>  <TARGET_OF_ASSAY>
PD-1/PD-L1 interaction (Homo sapiens, UniProt Q9NZQ7)

>  <CLASS_ASSIGNMENT>
rule not met

$$$$
